meta.source: ChEMBL document CHEMBL1128396

Test system: Pseudomonas aeruginosa
Assay: Antibacterial activity was determined against Pseudomonas aeruginosa ATCC 10145 (Gram-negative)
Format: functional
Item-by-item account of MIC
Numeric answer only, unit µg/mL assumed.

Take a look at these entries with their results.
Qu. Please report the recorded MIC for CC(C)(C)C(=O)C[n+]1ccc(SCC2=C(C(=O)O)N3C(=O)[C@@H](NC(=O)/C(=N\OC4CCCC4)c4csc(N)n4)[C@H]3CO2)cc1.O=S(=O)([O-])O .
Ans. 25

Qu. Query (compound): Nc1nc(/C(=N/OC2CCCC2)C(=O)N[C@@H]2C(=O)N3C(C(=O)O)=C(CSc4cc[n+](CC(=O)N5CCC(O)CC5)cc4)OC[C@H]23)cs1.O=S(=O)([O-])O ; field requested: MIC
Ans. 12.5

Qu. Can you look up the measured MIC of C[n+]1ccc(SCC2=C(C(=O)O)N3C(=O)[C@@H](NC(=O)/C(=N\OC4CCCC4)c4csc(N)n4)[C@H]3CO2)cc1.O=S(=O)([O-])O for me?
Ans. 6.25

Qu. Would you mind telling me what MIC value was observed for NC(=O)C[n+]1ccc(SCC2=C(C(=O)O)N3C(=O)[C@@H](NC(=O)/C(=N\OC4CCCC4)c4csc(N)n4)[C@H]3CO2)cc1.O=S(=O)([O-])O ?
Ans. 3.13

Qu. Given the compound CN(C)C(=O)C[n+]1ccc(SCC2=C(C(=O)O)N3C(=O)[C@@H](NC(=O)/C(=N\OC4CCCC4)c4csc(N)n4)[C@H]3CO2)cc1.O=S(=O)([O-])O , what is its reported MIC?
Ans. 12.5

Qu. What value of MIC has been recorded for this entry: CC(=O)C[n+]1ccc(SCC2=C(C(=O)O)N3C(=O)[C@@H](NC(=O)/C(=N\OC4CCCC4)c4csc(N)n4)[C@H]3CO2)cc1.O=S(=O)([O-])O
Ans. 6.25

Next:
Qu. Need MIC, item CC(C)(C)NC(=O)C[n+]1ccc(SCC2=C(C(=O)O)N3C(=O)[C@@H](NC(=O)/C(=N\OC4CCCC4)c4csc(N)n4)[C@H]3CO2)cc1.O=S(=O)([O-])O
Ans. 25

Qu. Tell me the measured MIC of CO/N=C(\C(=O)N[C@@H]1C(=O)N2C(C(=O)[O-])=C(C[n+]3cccc4c3CCC4)CS[C@H]12)c1csc(N)n1 [CEFPIROME] , please.
Ans. 6.25
